Would you mind telling me the reported pIC50 of each entry?
Test system: A549
experiment.description: Antiproliferative activity against human A549 cells expressing wild type p53 after 72 hrs by MTT assay
Type: functional, cell-based
test.conditions: Homo sapiens, A549, 72 h; read-out: IC50
Numbers only, as −log10 of the molar value.

compound: C[C@@H](NC1=C(C(=O)c2ccccc2)[C@@H](c2ccc(Br)cc2)N(CCCn2ccnc2)C1=O)c1ccccc1
pIC50: 5.71
//
compound: CCOc1ccc(NC2=C(C(=O)c3ccccc3)C(c3ccc(Br)cc3)N(CCCn3ccnc3)C2=O)cc1 (centres undefined)
pIC50: 4.69
//
compound: O=C(C1=C(Nc2ccc(OC(F)(F)F)cc2)C(=O)N(CCCn2ccnc2)C1c1ccc(Br)cc1)c1ccccc1 (centres undefined)
pIC50: 4.68

// moving on: another record for pIC50
Query block: For O=C(C1=C(O)C(=O)N(CCCn2ccnc2)C1c1ccc(Br)cc1)c1ccccc1 (centres undefined) , what is its reported pIC50?
Result block: 4.14
